system: JB6 Cl41 cells; assay: Soft agar assay, TPA-induced neoplastic cell transformation; type: cell-based, mouse; details: compound 0.1 µM, TPA 10 ng/mL, soft agar, 2 weeks, vs positive control; 0.1 µM
measured.parameter: inhibition of TPA-induced neoplastic transformation of JB6 Cl41 cells

molecule="COC1C(O)C(CO)OC(OC2C(O)C(CO)OC(OC3C(C)OC(OC4C(OC5CCC6(C)C7CCC89C(=O)OC(C)(C=CC=C(C)C)C8C(OC(C)=O)CC9(C)C7=CCC6C5(C)C)OCC(O)C4O)C(OC4OCC(O)C(O)C4O)C3O)C2O)C1O (stereo not shown) [Compound 4, cucumarioside D]" reported_measurement=99%
molecule="COC1C(O)COC(OC2C(O)C(COS(=O)(=O)O)OC(OC3C(C)OC(OC4C(OC5CCC6(C)C7CCC89C(=O)OC(C)(C=CC=C(C)C)C8C(OC(C)=O)CC9(C)C7=CCC6C5(C)C)OCC(O)C4O)C(O)C3O)C2O)C1O (stereo not shown) [Compound 3]" reported_measurement=36%
molecule="COC1C(O)COC(OC2C(O)C(COS(=O)(=O)O)OC(OC3C(C)OC(OC4C(OC5CCC6(C)C7CCC89C(=O)OC(C)(C=CC=C(C)C)C8C(OC(C)=O)CC9(C)C7=CCC6C5(C)C)OCC(O)C4O)C(O)C3O)C2O)C1O (stereo not shown) [Compound 6]" reported_measurement=61%
molecule="CC(=O)OC1CC2(C)C3=CCC4C(C)(C)C(OC5OCC(O)C(O)C5OC5OC(C)C(OC6OC(CO)C(O)C(O)C6O)C(O)C5OC5OCC(O)C(O)C5O)CCC4(C)C3CCC23C(=O)OC(C)(C=CC=C(C)C)C13 (stereo not shown)" reported_measurement=17%

---

test system: human melanoma cells RPMI-7951; experiment: Cell viability, MTS assay, RPMI-7951; assay type: cell-based; conditions: IC50 JB6 Cl41 / IC50 RPMI-7951
SI (selectivity index) RPMI-7951 for assorted compounds
measured.parameter: SI (selectivity index) RPMI-7951

compound="C=C(C)C1C2CC3(C)C4=CCC5C(C)(C)C(OC6OCC(O)C(O)C6OC6OC(C)C(OC7OC(CO)C(O)C(OC8OC(CO)C(O)C(OC)C8O)C7O)C(O)C6OC6OCC(O)C(O)C6O)CCC5(C)C4CCC13C(=O)O2 (stereo not shown)" reported_measurement=0.25
compound="CC(=O)OC1CC2(C)C3=CCC4C(C)(C)C(OC5OCC(O)C(O)C5OC5OC(C)C(OC6OC(CO)C(O)C(O)C6O)C(O)C5OC5OCC(O)C(O)C5O)CCC4(C)C3CCC23C(=O)OC(C)(C=CC=C(C)C)C13 (stereo not shown) [Compound 5]" reported_measurement=0.23
compound="COC1C(O)C(CO)OC(OC2C(O)C(CO)OC(OC3C(C)OC(OC4C(OC5CCC6(C)C7CCC89C(=O)OC(C)(C=CC=C(C)C)C8C(OC(C)=O)CC9(C)C7=CCC6C5(C)C)OCC(O)C4O)C(OC4OCC(O)C(O)C4O)C3O)C2O)C1O (stereo not shown) [Compound 1]" reported_measurement=0.24
compound="CC(=O)OC1CC2(C)C3=CCC4C(C)(C)C(OC5OCC(O)C(O)C5OC5OC(C)C(OC6OC(CO)C(O)C(O)C6O)C(O)C5OC5OCC(O)C(O)C5O)CCC4(C)C3CCC23C(=O)OC(C)(C=CC=C(C)C)C13 (stereo not shown) [Compound 2]" reported_measurement=0.87
